Cotton bollworm Mortality (%) reference
Tested on: cotton bollworms
Assay: whole plant or invertebrate
Details: in vivo
readout-type: Cotton bollworm Mortality (%)

In [3]: df
Out[3]:
                                   compound  observed_value
0  C[C@@H]1N[C@H](C(=O)NN=Cc2cccnc2)Cc2c1[nH]c1ccccc21 [Ic-16]              10
1  CCOC(=O)[C@@H]1Cc2c([nH]c3ccccc23)[C@H](c2cccnc2)N1 [Ib-11]              20
2  C[C@@H]1N[C@H](C(=O)NN=Cc2ccncc2)Cc2c1[nH]c1ccccc21 [Ic-15]              15
3  O=C(O)[C@@H]1Cc2c([nH]c3ccccc23)[C@H](c2cccnc2)N1 [Ib-6]              20
4  C[C@@H]1N[C@H](C(=O)NN=Cc2ccccn2)Cc2c1[nH]c1ccccc21 [Ic-17]              20
5  O=C(O)/C=C/c1cc2c([nH]c3ccccc32)c(-c2cccnc2)n1 [Ia-16]               5

====

Tested on: tobacco mosaic virus (TMV)
Test: Anti-TMV in vivo protective effect
Parameters: species or system tobacco mosaic virus (host Nicotiana tabacum L.cv.Xanthi NN)
Conditions: treatment dose 500 μg/mL
# key: entry, value: Relative inhibition rate (%) In vivo protection
readout-type: Relative inhibition rate (%) In vivo protection

>>> df
                                   compound  unit_spec  observed_value
0        CC(=O)Oc1ccc2c(c1)[nH]c1c(C)nccc12          %            27.2
1  C[C@@H]1N[C@H](C(=O)NN=Cc2ccc(Cl)cc2)Cc2c1[nH]c1ccccc21          %            64.2
2  COc1ccccc1C=NNC(=O)[C@@H]1Cc2c([nH]c3ccccc23)[C@H](C)N1          %            34.8
3  C[C@@H]1N[C@H](C(=O)NN=Cc2ccc(N(C)C)cc2)Cc2c1[nH]c1ccccc21          %            62.4
4  C[C@@H]1N[C@H](C(=O)NN=Cc2ccc([N+](=O)[O-])cc2)Cc2c1[nH]c1ccccc21          %            61.5
5  COc1cc2c3c(c4cc(OC)c(OC)cc4c2cc1OC)CN1CCC[C@H]1C3.O=C(O)C[C@@H](O)C(=O)O [NK-007, reference compound]          %            67.9
6  COc1ccc(C=NNC(=O)[C@@H]2Cc3c([nH]c4ccccc34)[C@H](C)N2)cc1          %              70
7  CCCCCC(=O)NNC(=O)[C@@H]1Cc2c([nH]c3ccccc23)[C@H](C)N1          %            30.9

====

Tested on: tobacco mosaic virus (TMV)
Assay: Anti-TMV in vivo therapeutic effect
Design: species or system tobacco mosaic virus (host Nicotiana tabacum L.cv.Xanthi NN)
Conditions: treatment dose 500 μg/mL
// values below are reported Relative inhibition rate (%) In vivo therapy
readout-type: Relative inhibition rate (%) In vivo therapy

                                    compound  observed_value
 0  C[C@@H]1N[C@H](C(=O)NN=CC(C)(C)C)Cc2c1[nH]c1ccccc21 [Ic-26]            68.2
 1  C[C@@H]1N[C@H](C(=O)NN=Cc2ccco2)Cc2c1[nH]c1ccccc21 [Ic-18]            44.2
 2  C[C@@H]1N[C@H](C(=O)NN=CC2CCCCC2)Cc2c1[nH]c1ccccc21 [Ic-25]            62.8
 3  C[C@@H]1N[C@H](C(=O)NNC(=O)c2ccncc2)Cc2c1[nH]c1ccccc21 [Id-3]              45
 4  COc1ccc(C=NNC(=O)[C@@H]2Cc3c([nH]c4ccccc34)[C@H](C)N2)cc1OC [Ic-11]            40.5
 5  CCOC(=O)C1Cc2c([nH]c3ccccc23)CN1 (stereo not drawn) [Ib-9]            42.7
 6  CCCCCC(=O)NNC(=O)[C@@H]1Cc2c([nH]c3ccccc23)[C@H](C)N1 [Id-5]            27.3
 7  C[C@@H]1N[C@H](C(=O)NCC2CCCO2)Cc2c1[nH]c1ccccc21 (stereo partly drawn) [Ib-20]            34.2
 8  CC(=NNC(=O)[C@@H]1Cc2c([nH]c3ccccc23)[C@H](C)N1)C(C)(C)C [Ic-28]            55.4
 9  COc1ccccc1C=NNC(=O)[C@@H]1Cc2c([nH]c3ccccc23)[C@H](C)N1 [Ic-10]            36.4
10  C[C@@H]1N[C@H](C(=O)NNC(=O)C2CCCC2)Cc2c1[nH]c1ccccc21 [Id-7]            51.4
11  C[C@@H]1N[C@H](C(=O)NN=Cc2ccc(C(C)(C)C)cc2)Cc2c1[nH]c1ccccc21 [Ic-2]              47
12  COc1cc2c3c(c4cc(OC)c(OC)cc4c2cc1OC)CN1CCC[C@H]1C3.O=C(O)C[C@@H](O)C(=O)O [NK-007, reference compound]            67.2
13  CCOC(=O)c1cc2c([nH]c3ccccc32)c(C)n1 [Ia-10]            28.8
14  Cc1nnsc1C(=O)NNC(=O)[C@@H]1Cc2c([nH]c3ccccc23)[C@H](C)N1 [Id-2]            48.8
15  CCCCCCCC=NNC(=O)[C@@H]1Cc2c([nH]c3ccccc23)[C@H](C)N1 [Ic-24]            70.9
16  O=C(O)/C=C/c1cc2c([nH]c3ccccc32)c(-c2cccnc2)n1 [Ia-16]            20.2
17  CC(=NNC(=O)[C@@H]1Cc2c([nH]c3ccccc23)[C@H](C)N1)c1ccccc1 [Ic-27]            34.8

Data provenance is patent US10208033B2.
